Reference source: patent US20240391862A1

- Tested on: AVEFA
- ASSAY TEXT: Post-emergence herbicidal effect, greenhouse pot test
- Type: in vivo, Avena fatua
- ASSAY CONTEXT: Avena fatua, 504 h, 80 g/ha, visual rating about 3 weeks after treatment, read-out: Post-emergence effect against AVEFA
ENDPOINT LABEL: pest or weed control at 80 g/ha

The reported pest or weed control at 80 g/ha of the compound COC(=O)C(OC)Oc1nn(-c2ncccc2F)c(-c2cncc(F)c2)c1I (centres unmarked) was 90%

The reported pest or weed control at 80 g/ha of the compound COC(Oc1nn(-c2ncccc2F)c(-c2cncc(F)c2)c1C1CC1)C(=O)O (centres unmarked) was 90%

The reported pest or weed control at 80 g/ha of the compound CCOC(=O)C(OC)Oc1nn(-c2ncccc2F)c(-c2ccc(F)nc2)c1C1CC1 (centres unmarked) was 80%

The reported pest or weed control at 80 g/ha of the compound COC(=O)C(OC)Oc1nn(-c2ccccc2F)c(-c2ccc(F)nc2)c1C(F)(F)F (centres unmarked) was 90%

The reported pest or weed control at 80 g/ha of the compound CCOC(=O)C(OC)Oc1nn(-c2ncccc2F)c(-c2ccc(F)nc2)c1Cl (centres unmarked) was 90%

The reported pest or weed control at 80 g/ha of the compound COC(=O)C(OC)Oc1nn(-c2cc(F)ccc2F)c(-c2cncc(F)c2)c1C1CC1 (centres unmarked) was 90%

The reported pest or weed control at 80 g/ha of the compound COC(=O)C(OC)Oc1nn(-c2ccccc2)c(-c2ccc(F)nc2)c1Cl (centres unmarked) was 80%

The reported pest or weed control at 80 g/ha of the compound CCOC(=O)C(OC)Oc1nn(-c2ncccc2F)c(-c2cncc(F)c2)c1C1CC1 (centres unmarked) was 100%

---

- Tested on: LOLRI
- ASSAY TEXT: Post-emergence herbicidal effect, greenhouse pot test
- Assay type: in vivo, Lolium rigidum
- ASSAY CONTEXT: Lolium rigidum, 504 h, 320 g/ha, read-out: Post-emergence effect against LOLRI in %
ENDPOINT LABEL: pest or weed control at 320 g/ha
Dear colleague, please send the value followed by its unit.

The reported pest or weed control at 320 g/ha of the molecule COC(=O)C(OC)Oc1nn(-c2ncccc2F)c(-c2ccc(F)nc2)c1Cl (stereo not drawn) [Example I-38] was 100%

The reported pest or weed control at 320 g/ha of the molecule CCOC(=O)C(OCC)Oc1nn(-c2ccccc2F)c(-c2ccc(F)nc2)c1Br (racemic) [Example I-01] was 90%

The reported pest or weed control at 320 g/ha of the molecule COC(Oc1nn(-c2ncccc2F)c(-c2ccc(F)nc2)c1C1CC1)C(=O)O (stereo not drawn) [Example I-89] was 90%

The reported pest or weed control at 320 g/ha of the molecule COC(=O)C(OC)Oc1nn(-c2ccccc2F)c(-c2ccc(F)nc2)c1Br (racemic) [Example I-04] was 80%

The reported pest or weed control at 320 g/ha of the molecule CCOC(=O)C(OCC)Oc1nn(-c2ccccc2F)c(-c2ccc(F)nc2)c1Cl (stereo not drawn) [Example I-50] was 90%

The reported pest or weed control at 320 g/ha of the molecule COC(=O)C(OC)Oc1nn(-c2ccccc2F)c(-c2ccc(F)nc2)c1C1CC1 (stereo not drawn) [Example I-71] was 90%

The reported pest or weed control at 320 g/ha of the molecule CCOC(=O)C(OC)Oc1nn(-c2ncccc2F)c(-c2ccc(F)nc2)c1Cl (stereo not drawn) [Example I-48] was 90%

The reported pest or weed control at 320 g/ha of the molecule COC(=O)C(OC)Oc1nn(-c2cc(F)ccc2F)c(-c2cncc(F)c2)c1I (stereo not drawn) [Example I-28] was 90%

The reported pest or weed control at 320 g/ha of the molecule CCOC(=O)C(OCC)Oc1nn(-c2ccccc2F)c(-c2ccc(F)nc2)c1Br (single isomer, unassigned) [Example I-66] was 90%

The reported pest or weed control at 320 g/ha of the molecule COC(=O)C(OC)Oc1nn(-c2ncccc2F)c(-c2ccc(F)cc2F)c1Br (stereo not drawn) [Example I-07] was 80%

The reported pest or weed control at 320 g/ha of the molecule COC(=O)C(OC)Oc1nn(-c2ccccc2)c(-c2ccc(F)nc2)c1Br (stereo not drawn) [Example I-30] was 90%

The reported pest or weed control at 320 g/ha of the molecule CCOC(=O)C(OC)Oc1nn(-c2ncccc2F)c(-c2ccc(F)nc2)c1C1CC1 (stereo not drawn) [Example I-58] was 90%

The reported pest or weed control at 320 g/ha of the molecule COC(=O)C(OC)Oc1nn(-c2ncccc2F)c(-c2cncc(F)c2)c1Br (stereo not drawn) [Example I-91] was 90%

The reported pest or weed control at 320 g/ha of the molecule COC(=O)C(OC)Oc1nn(-c2ncccc2F)c(-c2cncc(F)c2)c1C1CC1 (stereo not drawn) [Example I-73] was 90%

The reported pest or weed control at 320 g/ha of the molecule CCOC(=O)C(OC)Oc1nn(-c2ncccc2F)c(-c2cncc(F)c2)c1C1CC1 (stereo not drawn) [Example I-113] was 100%

The reported pest or weed control at 320 g/ha of the molecule COC(=O)C(OC)Oc1nn(-c2ncccc2F)c(-c2cncc(F)c2)c1I (stereo not drawn) [Example I-72] was 90%

The reported pest or weed control at 320 g/ha of the molecule COC(=O)C(OC)Oc1nn(-c2ccccc2F)c(-c2ccc(F)nc2)c1C(F)(F)F (stereo not drawn) [Example I-70] was 90%

The reported pest or weed control at 320 g/ha of the molecule COC(=O)C(OC)Oc1nn(-c2ncccc2F)c(-c2ccc(F)nc2)c1I (stereo not drawn) [Example I-39] was 100%

The reported pest or weed control at 320 g/ha of the molecule COC(Oc1nn(-c2cc(F)ccc2F)c(-c2cncc(F)c2)c1C1CC1)C(=O)O (stereo not drawn) [Example I-109] was 90%

The reported pest or weed control at 320 g/ha of the molecule COC(Oc1nn(-c2ncccc2F)c(-c2cncc(F)c2)c1C1CC1)C(=O)O (stereo not drawn) [Example I-68] was 90%

The reported pest or weed control at 320 g/ha of the molecule CCOC(=O)C(OC)Oc1nn(-c2cc(F)ccc2F)c(-c2cncc(F)c2)c1C1CC1 (stereo not drawn) [Example I-37] was 100%

The reported pest or weed control at 320 g/ha of the molecule COC(=O)C(OC)Oc1nn(-c2ccccc2)c(-c2ccc(F)nc2)c1Cl (stereo not drawn) [Example I-26] was 90%

The reported pest or weed control at 320 g/ha of the molecule COC(=O)C(OC)Oc1nn(-c2ncccc2F)c(-c2ccc(F)nc2)c1C1CC1 (stereo not drawn) [Example I-40] was 90%

The reported pest or weed control at 320 g/ha of the molecule CCOC(=O)C(OC)Oc1nn(-c2ncccc2F)c(-c2ccc(F)nc2)c1Br (stereo not drawn) [Example I-14] was 90%

The reported pest or weed control at 320 g/ha of the molecule CCOC(=O)C(OC)Oc1nn(-c2ncccc2F)c(-c2ccc(F)nc2)c1C(F)(F)F (stereo not drawn) [Example I-55] was 90%

The reported pest or weed control at 320 g/ha of the molecule CCOC(=O)C(OC)Oc1nn(-c2cnccn2)c(-c2ccc(F)nc2)c1Br (stereo not drawn) [Example I-47] was 90%

The reported pest or weed control at 320 g/ha of the molecule COC(Oc1nn(-c2cnccn2)c(-c2ccc(F)nc2)c1Cl)C(=O)O (stereo not drawn) [Example I-42] was 90%

The reported pest or weed control at 320 g/ha of the molecule COC(=O)C(OC)Oc1nn(-c2ncccc2F)c(-c2ccc(F)nc2)c1C(F)(F)F (stereo not drawn) [Example I-41] was 90%

The reported pest or weed control at 320 g/ha of the molecule COC(=O)C(OC)Oc1nn(-c2cc(F)ccc2F)c(-c2cncc(F)c2)c1Br (stereo not drawn) [Example I-29] was 90%

The reported pest or weed control at 320 g/ha of the molecule COC(=O)C(OC)Oc1nn(-c2cnccn2)c(-c2ccc(F)nc2)c1Br (stereo not drawn) [Example I-36] was 80%
